# Experimental Protocol: Psilocin-d10 pharmacokinetics in female beagle dogs, oral gavage and intravenous (bolus)
# Condition Set: female, beagle, dog, plasma, iv, 0.2 mg/kg, Clearance (CL), dogs
Property Measured: clearance (mL/min/kg)

[[record]]
compound = "[2H]C([2H])([2H])N(C([2H])([2H])[2H])C([2H])([2H])C([2H])([2H])c1c[nH]c2cccc(O)c12 [Compound I-3]"
property_measured = "clearance"
readout_units = "mL/min/kg"
readout_value = 37.8


----------
# Experimental Protocol: Psilocin-d10 pharmacokinetics in female beagle dogs, oral gavage and intravenous (bolus)
# Condition Set: female, beagle, dog, plasma, po, 1 mg/kg, AUC0-inf, female dog plasma, single oral gavage 1.00 mg/kg, animal 61F
Property Measured: AUC(0-inf) (ng·h/mL)

[[record]]
record_smiles = "[2H]C([2H])([2H])N(C([2H])([2H])[2H])C([2H])([2H])C([2H])([2H])c1c[nH]c2cccc(O)c12"
readout_units = "ng·h/mL"
readout_value = 414


----------
# Experimental Protocol: Psilocin-d10 pharmacokinetics in female beagle dogs, oral gavage and intravenous (bolus)
# Condition Set: female, beagle, dog, plasma, iv, 0.2 mg/kg, CL, female dog plasma, single IV bolus 0.20 mg/kg, animal 723F
Property Measured: clearance (mL/min/kg)

[[record]]
compound = "[2H]C([2H])([2H])N(C([2H])([2H])[2H])C([2H])([2H])C([2H])([2H])c1c[nH]c2cccc(O)c12 [Compound I-3]"
property_measured = "clearance"
readout_value = 33.3


----------
# Experimental Protocol: Pharmacokinetics in male beagle dogs after oral administration by powder in capsule (PIC) or orally disintegrating tablet (ODT)
# Condition Set: dog, plasma, 5 mg
Property Measured: Tmax (min)

[[record]]
record_smiles = "[2H]C([2H])([2H])N(C([2H])([2H])[2H])C([2H])([2H])C([2H])([2H])c1c[nH]c2cccc(O)c12"
readout_value = 30


----------
# Experimental Protocol: Psilocin-d10 pharmacokinetics in female beagle dogs, oral gavage and intravenous (bolus)
# Condition Set: female, beagle, dog, plasma, po, 1 mg/kg, Tmax, female dog plasma, single oral gavage 1.00 mg/kg, Median (N=3)
Property Measured: Tmax (min)

[[record]]
record_smiles = "[2H]C([2H])([2H])N(C([2H])([2H])[2H])C([2H])([2H])C([2H])([2H])c1c[nH]c2cccc(O)c12"
property_measured = "Tmax"
readout_value = 30


----------
# Experimental Protocol: Psilocin-d10 pharmacokinetics in female beagle dogs, oral gavage and intravenous (bolus)
# Condition Set: female, beagle, dog, plasma, iv, 0.2 mg/kg, Cmax, female dog plasma, single IV bolus 0.20 mg/kg, Median (N=3)
Property Measured: Cmax (ng/mL)

[[record]]
compound = "[2H]C([2H])([2H])N(C([2H])([2H])[2H])C([2H])([2H])C([2H])([2H])c1c[nH]c2cccc(O)c12 [Compound I-3]"
readout_units = "ng/mL"
readout_value = 45.9


----------
# Experimental Protocol: Psilocin-d10 pharmacokinetics in female beagle dogs, oral gavage and intravenous (bolus)
# Condition Set: female, beagle, dog, plasma, po, 1 mg/kg, t1/2, female dog plasma, single oral gavage 1.00 mg/kg, animal 61F
Property Measured: half-life (h)

[[record]]
record_smiles = "[2H]C([2H])([2H])N(C([2H])([2H])[2H])C([2H])([2H])C([2H])([2H])c1c[nH]c2cccc(O)c12"
readout_value = 1.69


----------
# Experimental Protocol: Psilocin-d10 pharmacokinetics in female beagle dogs, oral gavage and intravenous (bolus)
# Condition Set: female, beagle, dog, plasma, po, 1 mg/kg, AUC0-inf, female dog plasma, single oral gavage 1.00 mg/kg, animal 723F
Property Measured: AUC(0-inf) (µg·h/mL)

[[record]]
record_smiles = "[2H]C([2H])([2H])N(C([2H])([2H])[2H])C([2H])([2H])C([2H])([2H])c1c[nH]c2cccc(O)c12"
property_measured = "AUC(0-inf)"
readout_units = "µg·h/mL"
readout_value = 0.426


----------
# Experimental Protocol: Psilocin-d10 pharmacokinetics in female beagle dogs, oral gavage and intravenous (bolus)
# Condition Set: female, beagle, dog, plasma, po, 1 mg/kg, F (Bioavailability), female dog plasma, single oral gavage 1.00 mg/kg, animal 60F
Property Measured: bioavailability (%)

[[record]]
compound = "[2H]C([2H])([2H])N(C([2H])([2H])[2H])C([2H])([2H])C([2H])([2H])c1c[nH]c2cccc(O)c12 [Compound I-3]"
property_measured = "bioavailability"
readout_value = 102


----------
# Experimental Protocol: Psilocin-d10 pharmacokinetics in female beagle dogs, oral gavage and intravenous (bolus)
# Condition Set: female, beagle, dog, plasma, po, 1 mg/kg, F (Bioavailability), female dog plasma, single oral gavage 1.00 mg/kg, animal 61F
Property Measured: bioavailability

[[record]]
record_smiles = "[2H]C([2H])([2H])N(C([2H])([2H])[2H])C([2H])([2H])C([2H])([2H])c1c[nH]c2cccc(O)c12"
readout_value = "86.5%"


----------
# Experimental Protocol: Psilocin-d10 pharmacokinetics in female beagle dogs, oral gavage and intravenous (bolus)
# Condition Set: female, beagle, dog, plasma, po, 1 mg/kg, t1/2, female dog plasma, single oral gavage 1.00 mg/kg, animal 723F
Property Measured: half-life (h)

[[record]]
record_smiles = "[2H]C([2H])([2H])N(C([2H])([2H])[2H])C([2H])([2H])C([2H])([2H])c1c[nH]c2cccc(O)c12"
readout_units = "h"
readout_value = 1.8


----------
# Experimental Protocol: Psilocin-d10 pharmacokinetics in female beagle dogs, oral gavage and intravenous (bolus)
# Condition Set: female, beagle, dog, plasma, po, 1 mg/kg, F (Bioavailability), female dog plasma, single oral gavage 1.00 mg/kg, Median (N=3)
Property Measured: bioavailability (%)

[[record]]
molecule = "[2H]C([2H])([2H])N(C([2H])([2H])[2H])C([2H])([2H])C([2H])([2H])c1c[nH]c2cccc(O)c12 [Compound I-3]"
property_measured = "bioavailability"
readout_units = "%"
readout_value = 186


----------
# Experimental Protocol: Psilocin-d10 pharmacokinetics in female beagle dogs, oral gavage and intravenous (bolus)
# Condition Set: female, beagle, dog, plasma, iv, 0.2 mg/kg, Cmax, female dog plasma, single IV bolus 0.20 mg/kg, Mean (N=3)
Property Measured: Cmax (ng/mL)

[[record]]
record_smiles = "[2H]C([2H])([2H])N(C([2H])([2H])[2H])C([2H])([2H])C([2H])([2H])c1c[nH]c2cccc(O)c12"
property_measured = "Cmax"
readout_value = 45.8


----------
# Experimental Protocol: Psilocin-d10 pharmacokinetics in female beagle dogs, oral gavage and intravenous (bolus)
# Condition Set: female, beagle, dog, plasma, po, 1 mg/kg, Cmax, female dog plasma, single oral gavage 1.00 mg/kg, animal 723F
Property Measured: Cmax (ng/mL)

[[record]]
compound = "[2H]C([2H])([2H])N(C([2H])([2H])[2H])C([2H])([2H])C([2H])([2H])c1c[nH]c2cccc(O)c12 [Compound I-3]"
readout_value = 126


----------
# Experimental Protocol: Psilocin-d10 pharmacokinetics in female beagle dogs, oral gavage and intravenous (bolus)
# Condition Set: female, beagle, dog, plasma, iv, 0.2 mg/kg, C0, female dog plasma, single IV bolus 0.20 mg/kg, Median (N=3)
Property Measured: C0 (ng/mL)

[[record]]
compound = "[2H]C([2H])([2H])N(C([2H])([2H])[2H])C([2H])([2H])C([2H])([2H])c1c[nH]c2cccc(O)c12 [Compound I-3]"
readout_value = 62


----------
# Experimental Protocol: Psilocin-d10 pharmacokinetics in female beagle dogs, oral gavage and intravenous (bolus)
# Condition Set: female, beagle, dog, plasma, po, 1 mg/kg, Tmax, female dog plasma, single oral gavage 1.00 mg/kg, animal 723F
Property Measured: Tmax (min)

[[record]]
compound = "[2H]C([2H])([2H])N(C([2H])([2H])[2H])C([2H])([2H])C([2H])([2H])c1c[nH]c2cccc(O)c12 [Compound I-3]"
readout_units = "min"
readout_value = 30


----------
# Experimental Protocol: Psilocin-d10 pharmacokinetics in female beagle dogs, oral gavage and intravenous (bolus)
# Condition Set: female, beagle, dog, plasma, po, 1 mg/kg, Tmax, female dog plasma, single oral gavage 1.00 mg/kg, animal 61F
Property Measured: Tmax (min)

[[record]]
compound = "[2H]C([2H])([2H])N(C([2H])([2H])[2H])C([2H])([2H])C([2H])([2H])c1c[nH]c2cccc(O)c12 [Compound I-3]"
readout_value = 30


----------
# Experimental Protocol: Psilocin-d10 pharmacokinetics in female beagle dogs, oral gavage and intravenous (bolus)
# Condition Set: female, beagle, dog, plasma, po, 1 mg/kg, Cmax, female dog plasma, single oral gavage 1.00 mg/kg, Median (N=3)
Property Measured: Cmax (ng/mL)

[[record]]
record_smiles = "[2H]C([2H])([2H])N(C([2H])([2H])[2H])C([2H])([2H])C([2H])([2H])c1c[nH]c2cccc(O)c12"
readout_value = 132

